molecular target: T1, human GPC3 on CHO-K1-human GPC3 cells (CHOK1-hGPC3.2B5) (human, UniProt P51654 25-554); assay: FACS, CHOK1-hGPC3.2B5 cells;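 further: flow cytometry of humanized antibodies binding to the cells over one hour in the cold, read as cell mean fluorescence intensity, with EC50 obtained by curve fitting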
T1 construct: whole, on cells
experimental_readout: EC50 (nM)
Value expressed in nM; do not type the unit.

Study these solved cases before continuing.
binder: hAb006LH2L1 (antibody, human IgG1, V domains shown, Humanized F3.38.7; VH H2 + VL L1; expressed as human IgG1) VH: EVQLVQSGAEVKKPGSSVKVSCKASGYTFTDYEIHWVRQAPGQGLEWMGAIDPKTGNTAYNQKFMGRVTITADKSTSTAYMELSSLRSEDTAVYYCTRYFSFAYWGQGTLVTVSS VL: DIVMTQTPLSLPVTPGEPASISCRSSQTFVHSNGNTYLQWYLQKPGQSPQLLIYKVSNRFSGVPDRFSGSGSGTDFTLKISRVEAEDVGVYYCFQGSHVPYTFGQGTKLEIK
unit_of_measurement: nM
EC50: 1.02
--
binder: hAb003LH3L1b (antibody, human IgG1, V domains shown, Humanized F2.154.1; VH H3 + VL L1b; expressed as human IgG1) VH: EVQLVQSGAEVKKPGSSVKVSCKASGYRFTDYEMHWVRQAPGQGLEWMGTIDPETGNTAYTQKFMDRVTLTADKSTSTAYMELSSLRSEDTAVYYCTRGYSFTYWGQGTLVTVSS VL: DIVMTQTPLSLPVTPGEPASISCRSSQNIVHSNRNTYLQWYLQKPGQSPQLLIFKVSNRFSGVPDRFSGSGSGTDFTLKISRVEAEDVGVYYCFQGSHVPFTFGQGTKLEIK
unit_of_measurement: nM
EC50: 0.647

In the following, a different binder is considered.
Prompt: # query: EC50 of entry hAb007LH1L1c (antibody, human IgG1, V domains shown, Humanized F3.81.19; VH H1 + VL L1c; expressed as human IgG1) VH: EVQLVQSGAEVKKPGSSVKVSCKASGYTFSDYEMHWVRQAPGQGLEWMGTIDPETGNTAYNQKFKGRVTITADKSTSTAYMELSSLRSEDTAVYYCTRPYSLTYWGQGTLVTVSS VL: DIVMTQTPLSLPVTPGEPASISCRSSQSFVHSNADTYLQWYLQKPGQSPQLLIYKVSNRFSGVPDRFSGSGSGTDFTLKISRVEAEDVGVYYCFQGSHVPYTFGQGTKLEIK
Response: 4.61
